biological target: CDK2/Cyclin E1 (Homo sapiens (Human)); assay: biochemical; conditions: CDK2_Ki (nM), phosphorylated CDK2/Cyclin E1, 150 μM ATP, Morrison tight-binding fit
Use Ki to assign classes; range list: low band: < 1 nM; middle band: ≥ 1 nM and < 4 nM; high band: ≥ 4 nM

1. CCS(=O)(=O)N1CCC(Nc2ncc3ccc(=O)n([C@@H]4CCC[C@@]4(C)O)c3n2)CC1 (single isomer, unassigned) [Example 76] ... low band
2. C[C@@H]1[C@@H](O)CC[C@@H]1n1c(=O)ccc2cnc(NC3CCN(S(C)(=O)=O)CC3)nc21 (single isomer, unassigned) [Example 209] ... low band
3. CS(=O)(=O)N1CC[C@@H](Nc2ncc3cc(CC(N)=O)c(=O)n(C4CCCC4)c3n2)[C@H](F)C1 (single isomer, unassigned) [Example 161] ... high band
4. C[C@]1(O)CCC[C@@H]1n1c(=O)ccc2cnc(NC3CCN(S(=O)(=O)CF)CC3)nc21 (single isomer, unassigned) [Example 59] ... high band
5. CNS(=O)(=O)N1CCC(Nc2ncc3ccc(=O)n([C@@H]4C[C@@H](O)CC[C@H]4F)c3n2)CC1 (single isomer, unassigned) [Example 220] ... high band
6. CNS(=O)(=O)N1CCC(Nc2ncc3cc(Cl)c(=O)n([C@H]4CCC[C@]4(C)O)c3n2)CC1 (single isomer, unassigned) [Example 127] ... middle band
7. C[C@@H]1[C@H](O)CC[C@H]1n1c(=O)c(Cl)cc2cnc(NC3CCN(S(C)(=O)=O)CC3)nc21 (single isomer, unassigned) [Example 203] ... low band
8. COCCS(=O)(=O)N1CCC(Nc2ncc3ccc(=O)n([C@@H]4CCC[C@@H]4C)c3n2)CC1 [Example 52] ... low band
9. COC(C)(C)CNS(=O)(=O)N1CCC(Nc2ncc3cc(C)c(=O)n([C@H]4CCC[C@]4(C)O)c3n2)CC1 (single isomer, unassigned) [Example 99] ... middle band
10. C[C@]1(O)CCC[C@@H]1n1c(=O)c(CC(N)=O)cc2cnc(NC3CCN(S(C)(=O)=O)CC3)nc21 (single isomer, unassigned) [Example 180] ... middle band
11. CS(=O)(=O)N1CCC(Nc2ncc3cc(Cl)c(=O)n([C@@H]4CC[C@@H](O)C4)c3n2)CC1 (single isomer, unassigned) [Example 170] ... high band
12. Cc1cc2cnc(NC3CCN(S(=O)(=O)C4CC4)CC3)nc2n([C@H]2CCC[C@]2(C)O)c1=O (single isomer, unassigned) [Example 113] ... middle band
13. CS(=O)(=O)N1CCC(Nc2ncc3ccc(=O)n([C@H]4CC[C@@H](O)CC4)c3n2)CC1 [Example 215] ... middle band
14. CS(=O)(=O)N1CCC(Nc2ncc3cc(Cl)c(=O)n([C@H]4CCC[C@H](O)C4)c3n2)CC1 (single isomer, unassigned) [Example 35] ... high band
15. COCCc1cc2cnc(N[C@@H]3CCN(S(C)(=O)=O)C[C@H]3F)nc2n(C2CCCC2)c1=O (single isomer, unassigned) [Example 159] ... high band
16. CS(=O)(=O)N1CCC(Nc2ncc3cc(CC(F)F)c(=O)n([C@@H]4CC[C@@H](O)C4)c3n2)CC1 (single isomer, unassigned) [Example 172] ... high band
17. Cc1cc2cnc(NC3CCN(S(=O)(=O)NCC(C)(F)F)CC3)nc2n([C@H]2CCC[C@]2(C)O)c1=O (single isomer, unassigned) [Example 105] ... middle band
18. CNS(=O)(=O)N1CCC(Nc2ncc3cc(C)c(=O)n([C@H]4CCC[C@]4(C)O)c3n2)CC1 (single isomer, unassigned) [Example 95] ... middle band
19. Cn1cc(S(=O)(=O)N2CCC(Nc3ncc4ccc(=O)n([C@@H]5CCC[C@@]5(C)O)c4n3)CC2)cn1 (single isomer, unassigned) [Example 82] ... low band
20. C[C@H]1[C@@H](O)CC[C@@H]1n1c(=O)ccc2cnc(NC3CCN(S(C)(=O)=O)CC3)nc21 (single isomer, unassigned) [Example 202] ... low band
21. CS(=O)(=O)N1CCC(Nc2ncc3ccc(=O)n([C@@H]4C[C@@H](O)CC[C@H]4F)c3n2)CC1 (single isomer, unassigned) [Example 218] ... high band
22. Cc1cc2cnc(NC3CCN(S(=O)(=O)CC4CC4)CC3)nc2n([C@H]2CCC[C@]2(C)O)c1=O (single isomer, unassigned) [Example 117] ... middle band
23. CS(=O)(=O)N1CCC(Nc2ncc3ccc(=O)n([C@H]4C[C@H](O)CC[C@@H]4F)c3n2)CC1 (single isomer, unassigned) [Example 217] ... low band

----------
target: CDK6/Cyclin D1 (Homo sapiens (Human)); test: biochemical; settings: CDK6_Ki (nM), non-phosphorylated CDK6/Cyclin D1, 2 mM ATP, Morrison fit
Label true when Ki is strictly below 1 nM; otherwise label false.

1. CNS(=O)(=O)N1CCC(Nc2ncc3cc(Cl)c(=O)n([C@@H]4CCC[C@@]4(C)O)c3n2)CC1 (single isomer, unassigned) [Example 126] ... true
2. CS(=O)(=O)N1CCC(Nc2ncc3cc(C(F)F)c(=O)n([C@H]4CC[C@H](O)C4)c3n2)CC1 (relative stereo) [Example 134] ... true
3. Cc1cc2cnc(NC3CCN(S(C)(=O)=O)CC3)nc2n(C2CCCCC(O)C2)c1=O (single isomer, unassigned; isomer b) [Example 224] ... false
4. CS(=O)(=O)N1CCC(Nc2ncc3ccc(=O)n([C@H]4C[C@H](O)CC[C@@H]4F)c3n2)CC1 (single isomer, unassigned) [Example 217] ... false
5. CC[C@]1(O)CCC[C@@H]1n1c(=O)ccc2cnc(NC3CCN(S(C)(=O)=O)CC3)nc21 (single isomer, unassigned) [Example 194] ... false
6. Cc1cc2cnc(NC3CCN(S(C)(=O)=O)CC3)nc2n(C2CCCCC(O)C2)c1=O (single isomer, unassigned; isomer d) [Example 226] ... false

----------
Below, each entry is listed with its recorded log10 Ki.
molecular target: CDK2/Cyclin E1 (Homo sapiens (Human), UniProt P24941); test: biochemical; conditions: CDK2_Ki (nM), phosphorylated CDK2/Cyclin E1, 150 μM ATP, Morrison tight-binding fit
PROPERTY LABEL: log10 Ki (log10 of the value in nM)

1. C[C@]1(O)CCC[C@@H]1n1c(=O)ccc2cnc(NC3CCN(S(=O)(=O)CC(F)(F)F)CC3)nc21 (single isomer, unassigned) [Example 87] ... 0.64
2. CS(=O)(=O)N1CCC(Nc2ncc3ccc(=O)n([C@@H]4CC[C@@H](O)C4)c3n2)CC1 (single isomer, unassigned) [Example 54] ... 0.16
3. CS(=O)(=O)N1CCC(Nc2ncc3cc(CC(N)=O)c(=O)n([C@H]4CCC[C@H](O)C4)c3n2)CC1 (single isomer, unassigned) [Example 214] ... 1.44
4. Cc1cc2cnc(NC3CCN(S(=O)(=O)C4CCS(=O)(=O)C4)CC3)nc2n([C@@H]2CCC[C@@]2(C)O)c1=O (single isomer, unassigned; isomer d) [Example 109] ... -0.85
5. CCc1cc2cnc(NC3CCN(S(C)(=O)=O)CC3)nc2n(C2CCCC2)c1=O [Example 141] ... 0.10
6. O=c1ccc2cnc(NC3CCN(S(=O)(=O)C(F)F)CC3)nc2n1C1CCCC1 [Example 14] ... 0.40
7. Cc1cc2cnc(NC3CCN(S(C)(=O)=O)CC3)nc2n([C@H]2COC[C@]2(C)O)c1=O (single isomer, unassigned) [Example 198] ... 1.43
8. COC(C)(C)CNS(=O)(=O)N1CCC(Nc2ncc3ccc(=O)n([C@@H]4CCC[C@@]4(C)O)c3n2)CC1 (single isomer, unassigned) [Example 60] ... -0.32
9. Cc1cc2cnc(NC3CCN(S(=O)(=O)CC(F)(F)F)CC3)nc2n([C@H]2CCC[C@]2(C)O)c1=O (single isomer, unassigned) [Example 119] ... 0.46
10. CNS(=O)(=O)N1CCC(Nc2ncc3cc(C(F)F)c(=O)n([C@@H]4CCC[C@@]4(C)O)c3n2)CC1 (single isomer, unassigned) [Example 130] ... -0.77
11. C[C@]1(O)CCC[C@@H]1n1c(=O)ccc2cnc(NC3CCN(S(=O)(=O)c4nncs4)CC3)nc21 (single isomer, unassigned) [Example 81] ... 0.85
12. C[C@]1(O)CCC[C@@H]1n1c(=O)ccc2cnc(NC3CCN(S(=O)(=O)CC4CC4)CC3)nc21 (single isomer, unassigned) [Example 91] ... 0.48

----------
target: CDK6/Cyclin D1 (Homo sapiens (Human), UniProt Q00534); assay: biochemical; conditions: CDK6_Ki (nM), non-phosphorylated CDK6/Cyclin D1, 2 mM ATP, Morrison fit
Sequence (Q00534 whole entry): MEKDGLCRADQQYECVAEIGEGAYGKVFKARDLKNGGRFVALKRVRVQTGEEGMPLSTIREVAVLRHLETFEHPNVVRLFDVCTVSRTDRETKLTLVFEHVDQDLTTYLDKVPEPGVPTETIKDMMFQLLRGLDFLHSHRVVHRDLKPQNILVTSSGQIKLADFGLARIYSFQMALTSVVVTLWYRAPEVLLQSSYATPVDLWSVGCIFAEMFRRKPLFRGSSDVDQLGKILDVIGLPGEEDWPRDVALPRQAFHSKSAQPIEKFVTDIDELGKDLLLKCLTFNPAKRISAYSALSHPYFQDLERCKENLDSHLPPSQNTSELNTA
Sequence (P24385 whole entry partner): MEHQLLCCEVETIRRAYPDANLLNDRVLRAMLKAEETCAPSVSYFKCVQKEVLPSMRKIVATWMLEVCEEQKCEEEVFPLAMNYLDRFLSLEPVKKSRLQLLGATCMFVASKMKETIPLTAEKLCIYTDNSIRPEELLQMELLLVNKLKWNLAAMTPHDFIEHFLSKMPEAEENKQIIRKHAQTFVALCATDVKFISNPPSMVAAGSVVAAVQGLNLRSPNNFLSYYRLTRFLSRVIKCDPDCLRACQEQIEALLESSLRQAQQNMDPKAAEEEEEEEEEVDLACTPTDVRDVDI
PROPERTY LABEL: Ki

1. Cc1cc2cnc(NC3CCN(S(=O)(=O)C(F)(F)F)CC3)nc2n([C@@H]2CCC[C@@]2(C)O)c1=O (single isomer, unassigned) ... 0.85 nM
2. CC(=O)c1c(C)c2cnc(NC3CCN(S(C)(=O)=O)CC3)nc2n([C@@H]2CCC[C@@]2(C)O)c1=O (single isomer, unassigned) ... 0.14 nM
3. C[C@@]1(O)CCC[C@H]1n1c(=O)c(Cl)cc2cnc(N[C@@H]3CCN(S(C)(=O)=O)C[C@@H]3F)nc21 (single isomer, unassigned) ... 10.1 nM
4. CS(=O)(=O)N1CCC(Nc2ncc3cc(CC(F)F)c(=O)n([C@H]4CC[C@H](O)C4)c3n2)CC1 (single isomer, unassigned) ... 1.55 nM
5. CNS(=O)(=O)N1CCC(Nc2ncc3ccc(=O)n(C4CCCCCC4)c3n2)CC1 ... 1.95 nM
6. CC1CCC[C@@H]1n1c(=O)c(CC(N)=O)cc2cnc(NC3CCN(S(C)(=O)=O)CC3)nc21 (stereo in doubt) ... 6.71 nM

Sourced from patent US10233188B2
